Where do these numbers come from? They come from patent US20220315554A1.

- tgt: Human recombinant FAP (Homo sapiens, UniProt Q12884)
- Sequence (Q12884 whole entry): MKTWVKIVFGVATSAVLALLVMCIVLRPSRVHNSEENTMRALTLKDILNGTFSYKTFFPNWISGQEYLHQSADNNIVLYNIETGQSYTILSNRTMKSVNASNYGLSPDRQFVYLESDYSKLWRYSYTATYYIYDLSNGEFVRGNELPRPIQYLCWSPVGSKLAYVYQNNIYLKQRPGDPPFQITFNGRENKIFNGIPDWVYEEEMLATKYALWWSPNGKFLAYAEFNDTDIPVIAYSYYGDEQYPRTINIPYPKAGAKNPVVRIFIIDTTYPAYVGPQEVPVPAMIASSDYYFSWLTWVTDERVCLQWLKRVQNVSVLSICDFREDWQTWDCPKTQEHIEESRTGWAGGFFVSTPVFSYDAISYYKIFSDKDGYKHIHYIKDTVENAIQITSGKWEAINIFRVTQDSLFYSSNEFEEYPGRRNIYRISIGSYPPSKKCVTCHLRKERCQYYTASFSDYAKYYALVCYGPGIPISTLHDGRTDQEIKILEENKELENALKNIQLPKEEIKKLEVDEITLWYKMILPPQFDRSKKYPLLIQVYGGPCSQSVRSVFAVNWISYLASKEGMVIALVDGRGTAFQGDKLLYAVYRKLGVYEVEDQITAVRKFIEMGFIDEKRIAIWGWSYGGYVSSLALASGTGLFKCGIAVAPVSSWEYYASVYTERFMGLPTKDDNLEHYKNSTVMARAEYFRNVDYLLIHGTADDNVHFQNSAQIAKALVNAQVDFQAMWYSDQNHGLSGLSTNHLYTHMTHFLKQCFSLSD
- measurement description: FRET-based FAP protease activity assay
- Format: biochemical
- Design: purchased R&D systems 3715-SE
- condition details: pIC50 Category (Activity), FRET substrate, 37° C.
pIC50: −log10 of the molar value. Numbered stars: 1 amine (or outer) side, 2 acyl side, 3 side chain; on linkers, the order of the positions; unused ones are H or OH. Bridge positions count the residues as written; N and C are the ends. Peptide text beside a SMILES is read from it. * marks the point of attachment. X11 = O=C(CN1CCN2CCN3CCN(CC1)CC(=O)[O][In]([O]C(=O)C2)[O]C(=O)C3)NCCSCc1cc(CSCCN[*:2])cc(C[*:1])c1; Hexanoyl = CCCCCC(=O)*
# pIC50 per record follows

CCCCCC(=O)N[C@H]1CSCc2cc(CSCCNC(=O)CCOCCOCCOCCOCCOCCOCCNC(=O)C(CNCCN)CNCCN)cc(c2)CSC[C@@H](C(=O)O)NC(=O)[C@H](Cc2ccccc2)NC(=O)[C@H](CCC(N)=O)NC(=O)[C@H]([C@@H](C)O)NC(=O)[C@@H]2CCCN2C(=O)[C@@H]2CCCN2C1=O
> 8.00

Now examine the next entry.
input: What value of pIC50 has been reported for the following molecule? CCCCCC(=O)N[C@H]1CSCc2cc(CSCCNC(=O)CN3CCN4CCN5CCN(CC3)CC(=O)[O][In]([O]C(=O)C4)[O]C(=O)C5)cc(c2)CSCCNC(=O)[C@H](Cc2ccccc2)NC(=O)[C@H](CCC(N)=O)NC(=O)[C@H]([C@@H](C)O)NC(=O)[C@@H]2CCCN2C(=O)[C@@H]2CCCN2C1=O [3BP-3713] (Hexanoyl-CPPTQF; linker 1-C via X11)
output: > 8.00

====

# IC50 per record follows
- tgt: FAP-expressing human WI-38 fibroblasts (Homo sapiens, UniProt Q12884)
- Construct: FAP-expressing human WI-38 fibroblasts (ECACC) were cultured in EMEM; host or cells: WI-38 human fibroblasts
- measurement description: Competitive FACS binding assay
- condition details: pIC50 Category (FACS), competition with 3 nM Cy5-labeled compound, 4° C., 1 hour
Numbered stars: 1 amine (or outer) side, 2 acyl side, 3 side chain; on linkers, the order of the positions; unused ones are H or OH. Bridge positions count the residues as written; N and C are the ends. Square brackets hold non-standard residues; d marks the D form. Peptide text beside a SMILES is read from it. * marks the point of attachment. X7 = O=C(CN1CCN2CCN3CCN(CC1)CC(=O)[O][In]([O]C(=O)C2)[O]C(=O)C3)NCCSCc1cc(C[*:1])cc(C[*:2])c1; Hexanoyl = CCCCCC(=O)*; Sar = CNCC(=O)O

CCCCCC(=O)N[C@H]1CSCc2cc(CSCCNC(=O)CCC(=O)NCCCOCCOCCOCCCNC(=O)CN3CCN(CC(=O)O)CCN(CC(=O)O)CC3)cc(c2)CSC[C@@H](C(=O)O)NC(=O)[C@H](Cc2ccccc2)NC(=O)[C@H](CCC(N)=O)NC(=O)[C@H]([C@@H](C)O)NC(=O)[C@@H]2CCCN2C(=O)[C@@H]2CCCN2C1=O [3BP-4344]
< 10 nM
CCCCCC(=O)N[C@H]1CSCc2cc(CSCCNC(=O)CN3CCN(CC(=O)O)CCN(CC(=O)O)CCN(CC(=O)O)CC3)cc(c2)CSC[C@@H](C(=O)N(C)CC(=O)O)NC(=O)[C@H](Cc2ccccc2)NC(=O)[C@H](CCC(N)=O)NC(=O)[C@H]([C@@H](C)O)NC(=O)[C@@H]2CCCN2C(=O)[C@@H]2CCCN2C1 [3BP-3659]
< 10 nM

input: I'm curious: which IC50 was measured for CCCCCC(=O)N[C@H]1CSCc2cc(CSCCNC(=O)CN3CCN4CCN5CCN(CC3)CC(=O)[O][In]([O]C(=O)C4)[O]C(=O)C5)cc(c2)CSC[C@@H](C(=O)O)NC(=O)[C@H](Cc2ccccc2)NC(=O)[C@H](CCC(N)=O)NC(=O)[C@H]([C@@H](C)O)NC(=O)[C@@H]2CCCN2C(=O)CN(C)C1=O [3BP-3716] (Hexanoyl-C[Sar]PTQFC-OH; linker 1-7 via X7) tested on FAP-expressing human WI-38 fibroblasts (Homo sapiens, UniProt Q12884)?
output: < 10 nM

====

# pIC50 per record follows
- tgt: Human recombinant FAP (Homo sapiens)
- measurement description: FRET-based FAP protease activity assay
- Format: biochemical
- Design: purchased R&D systems 3715-SE
- condition details: pIC50 Category (Activity), FRET substrate, 37° C.
pIC50: −log10 of the molar value. Numbered stars: 1 amine (or outer) side, 2 acyl side, 3 side chain; on linkers, the order of the positions; unused ones are H or OH. Bridge positions count the residues as written; N and C are the ends. Square brackets hold non-standard residues; d marks the D form. Peptide text beside a SMILES is read from it. * marks the point of attachment. γGlu = O=C(O)[C@H](CCC(=O)[*:2])N[*:1]; mXylylene = c1cc(C[*:1])cc(C[*:2])c1; X18 = NCCNCC(CNCCN)C(=O)*; Nle = CCCC[C@H](N)C(=O)O

The following molecules have reported results that may help.
CCCCCC(=O)N[C@H]1CSCc2cc(CSCCNC(=O)[C@H](CO)NC(=O)[C@H](CO)NC(=O)[C@H](CO)NC(=O)CS)cc(c2)CSC[C@@H](C(=O)O)NC(=O)[C@H](Cc2ccccc2)NC(=O)[C@H](CCC(N)=O)NC(=O)[C@H]([C@@H](C)O)NC(=O)[C@@H]2CCCN2C(=O)[C@@H]2CCCN2C1=O
7.10 to 8.00
CCCCCC(=O)N[C@H]1CSCc2cc(CSCCNC(=O)[C@H](CS)NC(=O)[C@H](CC(=O)O)NC(=O)[C@@H](N)CC(=O)O)cc(c2)CSC[C@@H](C(=O)O)NC(=O)[C@H](Cc2ccccc2)NC(=O)[C@H](CCC(N)=O)NC(=O)[C@H]([C@@H](C)O)NC(=O)[C@@H]2CCCN2C(=O)[C@@H]2CCCN2C1=O
7.10 to 8.00
CCCC[C@H](NC(=O)CC[C@H](NC(=O)C(CNCCN)CNCCN)C(=O)O)C(=O)N[C@H]1CSCc2cccc(c2)CSC[C@@H](C(=O)O)NC(=O)[C@H](Cc2ccccc2)NC(=O)[C@H](CCC(=O)O)NC(=O)[C@H]([C@@H](C)O)NC(=O)[C@@H]2CCCN2C(=O)[C@@H]2CCCN2C1=O [3BP-4230] ({X18-γGlu}-[Nle]CPPTEFC-OH; linker 2-8 via mXylylene)
< 6.00

Now examine the next entry.
input: I'm curious: which pIC50 was measured for `CCCCCC(=O)N[C@H]1CSCc2cc(CSCCNC(=O)CN3CCN4CCN5CCN(CC3)CC(=O)[O][Eu]([O]C(=O)C4)[O]C(=O)C5)cc(c2)CSC[C@@H](C(=O)O)NC(=O)[C@H](Cc2ccccc2)NC(=O)[C@H](CCC(N)=O)NC(=O)[C@H]([C@@H](C)O)NC(=O)[C@@H]2CCCN2C(=O)[C@@H]2CCCN2C1` tested on Human recombinant FAP (Homo sapiens)?
output: > 8.00

====

- measurement description: Plasma stability assay, mouse plasma
- Type: in vitro ADME
- condition details: 4 h incubation, 37° C., read-out: % intact compound remaining after incubation, Mouse plasma
Numbered stars: 1 amine (or outer) side, 2 acyl side, 3 side chain; on linkers, the order of the positions; unused ones are H or OH. Bridge positions count the residues as written; N and C are the ends. Square brackets hold non-standard residues; d marks the D form. Peptide text beside a SMILES is read from it. * marks the point of attachment. X2 = O=C(O)CN1CCN(CC(=O)O)CCN(CC(=O)NCCCOCCOCCOCCCN*)CCN(CC(=O)O)CC1; mXylylene = c1cc(C[*:1])cc(C[*:2])c1; 4Pal = N[C@@H](Cc1ccncc1)C(=O)O; Suc = O=C(CCC(=O)[*:2])[*:1]; Nle = CCCC[C@H](N)C(=O)O; Hexanoyl = CCCCCC(=O)*
observed property: remaining at 4 h, 9.8 µM (%)
Just the number in %, nothing appended.

The following compounds have reported results that may help.
CSCC[C@H](NC(C)=O)C(=O)N[C@H]1CSCc2cccc(c2)CSC[C@@H](C(=O)N[C@@H](CC(=O)O)C(=O)N[C@@H](Cc2c[nH]cn2)C(=O)N[C@@H](Cc2ccccc2)C(=O)N[C@H](CCCNC(=N)N)C(=O)N[C@@H](CC(=O)O)C(N)=O)NC(=O)[C@H](Cc2ccccc2)NC(=O)[C@H](CCC(=O)O)NC(=O)[C@H]([C@@H](C)O)NC(=O)[C@@H]2CCCN2C(=O)[C@@H]2CCCN2C1=O [3BP-3212] (Ac-MCPPTEFCDHF[dR]D-NH2; linker 2-8 via mXylylene)
80
CCCCCC(=O)N[C@H]1CSCc2cccc(c2)CSC[C@@H](C(=O)N[C@@H](CC(=O)O)C(=O)N[C@@H](Cc2c[nH]cn2)C(=O)N[C@@H](Cc2ccccc2)C(=O)N[C@@H](CCCNC(=N)N)C(=O)N[C@@H](CC(=O)O)C(N)=O)NC(=O)[C@H](Cc2ccccc2)NC(=O)[C@H](CCC(=O)O)NC(=O)[C@H]([C@@H](C)O)NC(=O)[C@@H]2CCCN2C(=O)[C@@H]2CCCN2C1=O [3BP-2974] (Hexanoyl-CPPTEFCDHFRD-NH2; linker 1-7 via mXylylene)
92
CSCC[C@H](NC(=O)CCC(=O)NCCCOCCOCCOCCOCCCNC(=O)CN1CCN(CC(=O)O)CCN(CC(=O)O)CCN(CC(=O)O)CC1)C(=O)N[C@H]1CSCc2cccc(c2)CSC[C@@H](C(=O)N[C@@H](CC(=O)O)C(=O)N[C@@H](Cc2c[nH]cn2)C(=O)N[C@@H](Cc2ccccc2)C(=O)N[C@@H](CCCNC(=N)N)C(=O)N[C@@H](CC(=O)O)C(N)=O)NC(=O)[C@H](Cc2ccccc2)NC(=O)[C@H](CCC(=O)O)NC(=O)[C@H]2NC(=O)[C@@H]3C(CCN3C(=O)[C@@H]3CCCN3C1=O)[C@H]2O
100
CSCC[C@H](NC(C)=O)C(=O)N[C@@H]1CSCc2cccc(c2)CSC[C@H](C(=O)N[C@@H](CC(=O)O)C(=O)N[C@@H](Cc2c[nH]cn2)C(=O)N[C@@H](Cc2ccccc2)C(=O)N[C@@H](CCCNC(=N)N)C(=O)N[C@@H](CC(=O)O)C(N)=O)NC(=O)[C@H](Cc2ccccc2)NC(=O)[C@H](CCC(=O)O)NC(=O)[C@H]([C@@H](C)O)NC(=O)[C@@H]2CCCN2C(=O)[C@@H]2CCCN2C1=O [3BP-3181] (Ac-M[dC]PPTEF[dC]DHFRD-NH2; linker 2-8 via mXylylene)
100
CSCC[C@H](NC(C)=O)C(=O)N[C@H]1CSCc2cccc(c2)CSC[C@@H](C(=O)N[C@@H](CC(=O)O)C(=O)N[C@@H](Cc2c[nH]cn2)C(=O)N[C@@H](Cc2ccncc2)C(=O)N[C@@H](CCCNC(=N)N)C(=O)N[C@@H](CC(=O)O)C(N)=O)NC(=O)[C@H](Cc2ccccc2)NC(=O)[C@H](CCC(=O)O)NC(=O)[C@H]([C@@H](C)O)NC(=O)[C@@H]2CCCN2C(=O)[C@@H]2CCCN2C1=O [3BP-3191] (Ac-MCPPTEFCDH[4Pal]RD-NH2; linker 2-8 via mXylylene)
100
CCCC[C@H](NC(=O)CCC(=O)NCCCOCCOCCOCCCNC(=O)CN1CCN(CC(=O)O)CCN(CC(=O)O)CCN(CC(=O)O)CC1)C(=O)N[C@H]1CSCc2cccc(c2)CSC[C@@H](C(N)=O)NC(=O)[C@H](Cc2ccccc2)NC(=O)[C@H](CCC(=O)O)NC(=O)[C@H]([C@@H](C)O)NC(=O)[C@@H]2CCCN2C(=O)[C@@H]2CCCN2C1=O [3BP-3319] ({X2-Suc}-[Nle]CPPTEFC-NH2; linker 2-8 via mXylylene)
100

input: What value of remaining at 4 h, 9.8 µM has been reported for the following compound? CSCC[C@H](NC(C)=O)C(=O)N[C@H]1CSCc2cccc(c2)CSC[C@@H](C(=O)N[C@@H](CC(=O)O)C(=O)N[C@@H](Cc2c[nH]cn2)C(=O)N[C@@H](C)C(=O)N[C@@H](CCCNC(=N)N)C(=O)N[C@@H](CC(=O)O)C(N)=O)NC(=O)[C@H](Cc2ccccc2)NC(=O)[C@H](CCC(=O)O)NC(=O)[C@H]([C@@H](C)O)NC(=O)[C@@H]2CCCN2C(=O)[C@@H]2CCCN2C1=O [3BP-3196] (Ac-MCPPTEFCDHARD-NH2; linker 2-8 via mXylylene)
output: 87

input: What value of remaining at 4 h, 9.8 µM has been reported for the following compound? `CSCC[C@H](NC(C)=O)C(=O)N[C@H]1CSCc2cccc(c2)CSC[C@@H](C(=O)N[C@@H](CC(=O)O)C(=O)N[C@@H](Cc2c[nH]cn2)C(=O)N(C)[C@@H](Cc2ccccc2)C(=O)N[C@@H](CCCNC(=N)N)C(=O)N[C@@H](CC(=O)O)C(N)=O)NC(=O)[C@H](Cc2ccccc2)NC(=O)[C@H](CCC(=O)O)NC(=O)[C@H]2NC(=O)[C@@H]3C(CCN3C(=O)[C@@H]3CCCN3C1=O)[C@H]2O`
output: 97

input: What value of remaining at 4 h, 9.8 µM has been reported for the following compound? CSCC[C@H](NC(C)=O)C(=O)N[C@H]1CSCc2cccc(c2)CSC[C@@H](C(=O)N[C@H](CC(=O)O)C(=O)N[C@@H](Cc2c[nH]cn2)C(=O)N[C@@H](Cc2ccccc2)C(=O)N[C@@H](CCCNC(=N)N)C(=O)N[C@@H](CC(=O)O)C(N)=O)NC(=O)[C@H](Cc2ccccc2)NC(=O)[C@H](CCC(=O)O)NC(=O)[C@H]([C@@H](C)O)NC(=O)[C@@H]2CCCN2C(=O)[C@@H]2CCCN2C1=O [3BP-3183] (Ac-MCPPTEFC[dD]HFRD-NH2; linker 2-8 via mXylylene)
output: 98

input: What value of remaining at 4 h, 9.8 µM has been reported for the following compound? CSCC[C@H](NC(C)=O)C(=O)N[C@H]1CSCc2cccc(c2)CSC[C@@H](C(=O)N[C@@H](CC(=O)O)C(=O)N[C@@H](Cc2c[nH]cn2)C(=O)N[C@@H](Cc2ccccc2)C(=O)N[C@@H](CCCNC(=N)N)C(=O)N[C@@H](CC(=O)O)C(N)=O)NC(=O)[C@H](Cc2ccccc2)NC(=O)[C@H](CCC(=O)O)NC(=O)[C@H]([C@@H](C)O)NC(=O)[C@H]2CCCN2C(=O)[C@@H]2CCCN2C1=O [3BP-3177] (Ac-MCP[dP]TEFCDHFRD-NH2; linker 2-8 via mXylylene)
output: 79
